target_or_system: HLA-B*07:02
protocol_description: IEDB peptide-MHC binding, purified MHC/competitive/radioactivity; filed as Kd, often an IC50 or EC50 that approximates it; bounds were set here for any values at or beyond the usual limits of such assays
run_parameters: source organism: Dengue virus 2 Jamaica/1409/1983
quantity: Kd

1) LVMKDGRVL ... 1.07 nM

---

target_or_system: HLA-B*08:02
protocol_description: IEDB peptide-MHC binding, purified MHC/direct/fluorescence; filed as Kd, often an IC50 or EC50 that approximates it; bounds were set here for any values at or beyond the usual limits of such assays
run_parameters: source organism: Giardia lamblia ATCC 50803
quantity: Kd

1. KSNRIPFLY ... ≥ 20 µM

Source listed as the Immune Epitope Database (IEDB).
